These entries and their values trace back to ChEMBL document CHEMBL1201861.

Tested on: SK-PN-DW;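 note: growth inhibition measured with a viability assay on these cells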
Procedure Summary: cells
Type: functional, cell-based, Homo sapiens
Particulars: Homo sapiens, SK-PN-DW
Description: SANGER: Inhibition of human SK-PN-DW cell growth in a cell viability assay.
pIC50: −log10 of the molar value.
Measured Quantity: pIC50

Query string: What value of pIC50 has been recorded for this entry: C=CC(=O)N1CCCC(Nc2nc(Nc3ccc(N(C)C(=O)CC)cc3)nc3[nH]cnc23)C1 (centres undefined)
Result string: < 4.99

Query string: Next compound: CS(=O)(=O)N1CCN(Cc2cc3nc(-c4cccc5[nH]ncc45)nc(N4CCOCC4)c3s2)CC1 [PICTILISIB]
Result string: < 5.40

Query string: Record: Cc1ccc(NC(=O)c2ccc(CN3CCN(C)CC3)cc2)cc1Nc1nccc(-c2cccnc2)n1 [IMATINIB]
Result string: < 5.70

Query string: And then NC1(c2ccc(-c3nc4ccn5c(=O)[nH]nc5c4cc3-c3ccccc3)cc2)CCC1 [MK-2206] , what is it?
Result string: < 5.40
